Data provenance is patent US20240084003A1.

# test system: T1, human CD22-ECD-His protein (human, UniProt P20273 20-687)
# T1 construct: Recombinant, from HEK293E cells; also called hCD22-ECD-His; human CD22-His protein; not shown: His tag
# T1 sequence: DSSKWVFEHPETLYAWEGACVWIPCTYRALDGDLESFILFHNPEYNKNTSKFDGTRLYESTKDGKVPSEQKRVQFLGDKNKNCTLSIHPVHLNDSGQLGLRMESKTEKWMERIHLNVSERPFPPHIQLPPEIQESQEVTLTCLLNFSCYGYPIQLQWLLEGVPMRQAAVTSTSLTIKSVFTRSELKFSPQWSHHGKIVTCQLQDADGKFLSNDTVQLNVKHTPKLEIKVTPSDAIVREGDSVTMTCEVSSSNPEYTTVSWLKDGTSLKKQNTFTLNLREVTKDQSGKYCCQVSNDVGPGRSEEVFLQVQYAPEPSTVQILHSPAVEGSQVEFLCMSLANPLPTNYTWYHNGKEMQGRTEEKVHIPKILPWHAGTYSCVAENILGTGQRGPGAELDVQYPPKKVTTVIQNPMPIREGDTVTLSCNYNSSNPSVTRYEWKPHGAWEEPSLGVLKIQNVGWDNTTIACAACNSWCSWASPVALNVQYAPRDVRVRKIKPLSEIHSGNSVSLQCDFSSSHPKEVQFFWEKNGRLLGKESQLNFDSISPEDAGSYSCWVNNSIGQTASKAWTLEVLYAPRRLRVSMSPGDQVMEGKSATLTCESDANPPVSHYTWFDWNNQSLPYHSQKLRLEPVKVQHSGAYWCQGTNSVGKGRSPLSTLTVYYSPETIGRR
# test description: SPR (Biacore), antibody captured on Protein A chip, CD22-ECD-His in solution

binder	measure unit	koff
F1.250.16 (antibody, human IgG1, kappa, V domains shown, Chimeric IgG1 kappa) VH: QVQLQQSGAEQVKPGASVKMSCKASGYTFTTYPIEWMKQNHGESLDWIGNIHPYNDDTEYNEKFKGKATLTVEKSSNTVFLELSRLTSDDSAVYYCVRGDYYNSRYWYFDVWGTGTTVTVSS VL: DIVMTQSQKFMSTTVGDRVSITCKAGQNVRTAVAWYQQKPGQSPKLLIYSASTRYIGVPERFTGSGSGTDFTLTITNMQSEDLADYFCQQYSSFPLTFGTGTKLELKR	s⁻¹	0.000607
F2.104.10 (antibody, human IgG1, lambda, V domains shown, Chimeric IgG1 lambda) VH: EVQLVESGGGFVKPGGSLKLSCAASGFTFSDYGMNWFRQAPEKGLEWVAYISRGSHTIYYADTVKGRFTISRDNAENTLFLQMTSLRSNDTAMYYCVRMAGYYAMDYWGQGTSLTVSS VL: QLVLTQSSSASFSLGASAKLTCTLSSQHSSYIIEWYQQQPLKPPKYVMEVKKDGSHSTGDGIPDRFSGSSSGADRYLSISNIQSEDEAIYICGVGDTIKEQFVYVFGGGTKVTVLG	s⁻¹	0.00061
F1.17.1 (antibody, human IgG1, kappa, V domains shown, Chimeric IgG1 kappa) VH: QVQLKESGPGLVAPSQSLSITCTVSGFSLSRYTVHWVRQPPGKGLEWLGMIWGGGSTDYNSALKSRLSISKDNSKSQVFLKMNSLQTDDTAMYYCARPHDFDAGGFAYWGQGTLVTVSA VL: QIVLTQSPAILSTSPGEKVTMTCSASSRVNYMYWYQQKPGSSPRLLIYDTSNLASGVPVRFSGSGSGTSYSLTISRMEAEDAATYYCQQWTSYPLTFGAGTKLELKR	s⁻¹	0.000498
